Value source: patent US20260108607A1

# reported kon; entries follow
# study system: T1, EGFRvIII target antigen (SPR ligand) (UniProt P00533 25-645, limits assumed)
# T1 construct: also called EGFRvIII antigen
# assay notes: SPR; antibody as analyte
Write the answer as a number in M⁻¹ s⁻¹, unit excluded.

Consider the worked cases shown below.
Given the binder humanized antibody 40-2-H13 (98G2E9-VH6 + VL6) (scFv, the format in the SPR assay is not clearly stated) scFv: EVQLLESGGGLVQPGGSLKLSCAASGFTFSGYAMSWVRQTPEKGLEWVATITSGGSYTYYPDSVKGRFTISRDNAKNTLYLQMNSLRAEDTAMYYCARKDYGNYWFAYWGQGTLVTVSSGGGGSGGGGSGGGGSGGGGSDVVMTQSPLSLPVTLGQQASISCRSSQSLVHSDGNTYLHWYLQKPGQSPKLLIYKVSNRFSGVPDRFSGSGSGTDFTLKISRVEAEDVGVYFCSQTTQVPWTFGGGTKLEIK , write its reported kon.
29400

Given the binder humanized antibody 40-2-H11 (98G2E9-VH5 + VL7) (scFv, the format in the SPR assay is not clearly stated) scFv: EVQLLESGGGLVQPGGSLKLSCAASGFTFSGYAMSWVRQTPGKGLEWVATITSGGSYTYYPDSVKGRFTISRDNSKNTLYLQMNSLRAEDTAMYYCARKDYGNYWFAYWGQGTLVTVSSGGGGSGGGGSGGGGSGGGGSDVVMTQSPLSLPVTLGDQASISCRSSQSLVHSDGNTYLHWYLQKPGQSPKLLIYKVSNRFSGVPDRFSGSGSGTDFTLKISRVEAEDVGVYFCSQTTQVPWTFGGGTKLEIK , write its reported kon.
24800

Given the binder chimeric-VH + VL of clone 20-2-40-2 (98G2E9) (antibody, V domains shown, also called clone #40-2) VH: EVLLVESGGGLVKPGGSLKLSCAASGFTFSGYAMSWVRQTPEKRLEWVATITSGGSYTYYPDSVKGRFTISRDNAKNTLYLQMSSLRSEDTAMYYCARKDYGNYWFAYWGQGTLVTVSA VL: DVVMTQTPLSLPVSLGDQASISCRSSQSLVHSDGNTYLHWYLQKPGQSPKLLIYKVSNRFSGVPDRFSGSGSGTDFTLKISRVEAEDLGVYFCSQTTQVPWTFGGGTKLEIK , write its reported kon.
36200

Given the binder humanized antibody 40-2-H10 (98G2E9-VH5 + VL6) (scFv, the format in the SPR assay is not clearly stated) scFv: EVQLLESGGGLVQPGGSLKLSCAASGFTFSGYAMSWVRQTPGKGLEWVATITSGGSYTYYPDSVKGRFTISRDNSKNTLYLQMNSLRAEDTAMYYCARKDYGNYWFAYWGQGTLVTVSSGGGGSGGGGSGGGGSGGGGSDVVMTQSPLSLPVTLGQQASISCRSSQSLVHSDGNTYLHWYLQKPGQSPKLLIYKVSNRFSGVPDRFSGSGSGTDFTLKISRVEAEDVGVYFCSQTTQVPWTFGGGTKLEIK , write its reported kon.
25600

Given the binder humanized antibody 40-2-H12 (98G2E9-VH6 + VL5) (scFv, the format in the SPR assay is not clearly stated) scFv: EVQLLESGGGLVQPGGSLKLSCAASGFTFSGYAMSWVRQTPEKGLEWVATITSGGSYTYYPDSVKGRFTISRDNAKNTLYLQMNSLRAEDTAMYYCARKDYGNYWFAYWGQGTLVTVSSGGGGSGGGGSGGGGSGGGGSDVVMTQSPLSLPVTLGDPASISCRSSQSLVHSDGNTYLHWYLQRPGQSPRLLIYKVSNRFSGVPDRFSGSGSGTDFTLKISRVEAEDVGVYFCSQTTQVPWTFGGGTKLEIK , write its reported kon.
26000

More entries:
Given the binder humanized antibody 40-2-H9 (98G2E9-VH5 + VL5) (scFv, the format in the SPR assay is not clearly stated) scFv: EVQLLESGGGLVQPGGSLKLSCAASGFTFSGYAMSWVRQTPGKGLEWVATITSGGSYTYYPDSVKGRFTISRDNSKNTLYLQMNSLRAEDTAMYYCARKDYGNYWFAYWGQGTLVTVSSGGGGSGGGGSGGGGSGGGGSDVVMTQSPLSLPVTLGDPASISCRSSQSLVHSDGNTYLHWYLQRPGQSPRLLIYKVSNRFSGVPDRFSGSGSGTDFTLKISRVEAEDVGVYFCSQTTQVPWTFGGGTKLEIK , write its reported kon.
27400
